- System Under Test: PUM1 PUF domain (Homo sapiens, UniProt Q14671 828-1176)
- Sequence (Q14671 828-1176): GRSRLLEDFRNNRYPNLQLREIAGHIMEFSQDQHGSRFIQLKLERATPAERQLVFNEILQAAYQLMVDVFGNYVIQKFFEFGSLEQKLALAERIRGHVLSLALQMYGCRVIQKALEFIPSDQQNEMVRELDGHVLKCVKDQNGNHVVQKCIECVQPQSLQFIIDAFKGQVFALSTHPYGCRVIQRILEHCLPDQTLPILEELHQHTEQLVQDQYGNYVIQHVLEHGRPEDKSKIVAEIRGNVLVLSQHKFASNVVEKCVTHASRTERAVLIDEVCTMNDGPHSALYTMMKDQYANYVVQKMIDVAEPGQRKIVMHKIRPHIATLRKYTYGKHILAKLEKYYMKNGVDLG
- Protocol: EMSA; 10 mM HEPES pH 7.3, 50 mM NaCl, 2 mM DTT, 0.05% Tween 20, 0.1 mg/mL BSA, 0.1 mg/mL tRNA; on ice; 10 nM RNA, 0-1 uM protein
- Run Conditions: tags: GST cleaved (HRV3C); label: 32P
Observable: Kd

Q: Which Kd value is on record for GGUAAGUGUAAAUAGUCUGCAU (ssRNA) [UGUAAAUA] ?
A: ~80 nM
